- Procedure summary: MTS/PMS cell viability assay
- Format: cell-based
- Assay conditions: human, HepG2 hepatocytes, 1 h exposure, read-out: Cytotoxicity HepG2 EC50 ± SD
Measurement type: EC50 at 1 h (µM)
Answers are plain numbers, in µM.

[[record]]
structure_smiles = "C[C@@H](c1ccccc1)N(CCC(N)=O)C(=O)[C@H](CCCCNC(=N)N)NC(=O)CCN(C(=O)[C@H](CCCCN)NC(=O)CCN(C(=O)[C@H](CCCCNC(=N)N)NC(=O)CCN(C(=O)[C@H](CCCCN)NC(=O)CCN(C(=O)[C@H](CCCCNC(=N)N)NC(=O)CCN(C(=O)[C@H](CCCCN)NC(=O)CNCCCNCCCCNCCCN)[C@@H](C)c1ccccc1)[C@@H](C)c1ccccc1)[C@@H](C)c1ccccc1)[C@@H](C)c1ccccc1)[C@@H](C)c1ccccc1"
measurement_type = "EC50 at 1 h"
numeric_readout = 59.6


Please find the next compound below.
input: Supply measured EC50 at 1 h of COCCOCCOCC(=O)N[C@@H](CCCCN)C(=O)N(CCC(=O)N[C@@H](CCCCNC(=N)N)C(=O)N(CCC(=O)N[C@@H](CCCCN)C(=O)N(CCC(=O)N[C@@H](CCCCNC(=N)N)C(=O)N(CCC(=O)N[C@@H](CCCCN)C(=O)N(CCC(=O)N[C@@H](CCCCNC(=N)N)C(=O)N(CCC(N)=O)[C@@H](C)c1ccccc1)[C@@H](C)c1ccccc1)[C@@H](C)c1ccccc1)[C@@H](C)c1ccccc1)[C@@H](C)c1ccccc1)[C@@H](C)c1ccccc1 in your reply.
output: 118

Ref: paper PMC6615261
